Target: Acetylcholinesterase (AChE) (Mus musculus, UniProt P21836)
Construct: A 10% (w/v) homogenate of brain was prepared; from tissue; host or cells: whole brain of adult Swiss albino mice; supernatant (100,000 g) of the 1% Triton X-100 treated homogenate
Sequence (P21836 32-614): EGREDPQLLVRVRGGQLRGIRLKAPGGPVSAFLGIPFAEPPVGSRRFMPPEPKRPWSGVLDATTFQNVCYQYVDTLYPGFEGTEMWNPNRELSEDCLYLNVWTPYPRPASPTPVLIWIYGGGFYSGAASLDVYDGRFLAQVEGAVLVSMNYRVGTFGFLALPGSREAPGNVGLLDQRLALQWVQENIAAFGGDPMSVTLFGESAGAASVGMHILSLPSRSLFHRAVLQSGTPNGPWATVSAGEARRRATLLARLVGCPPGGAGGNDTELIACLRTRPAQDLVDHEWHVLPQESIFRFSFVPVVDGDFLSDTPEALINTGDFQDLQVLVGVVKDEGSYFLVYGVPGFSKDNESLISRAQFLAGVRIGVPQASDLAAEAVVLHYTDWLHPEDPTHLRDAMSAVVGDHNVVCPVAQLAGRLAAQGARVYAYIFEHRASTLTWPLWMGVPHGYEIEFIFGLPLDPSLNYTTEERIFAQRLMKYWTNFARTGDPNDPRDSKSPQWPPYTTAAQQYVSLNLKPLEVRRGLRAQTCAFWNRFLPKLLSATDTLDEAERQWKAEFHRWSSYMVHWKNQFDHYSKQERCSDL
Experiment: Acetylcholinesterase (AChE) assay in brain (in vitro), Ellman method
Type: biochemical, Swiss albino mice
Settings: read-out: % Inhibition of AChE enzyme
assay-metric: inhibition at 100 µM (%)
Give bare numbers, in %.

Endpoint output: inhibition at 100 µM of C#CCN1CCCc2ccc(OC(=O)Nc3c(C)cccc3C(C)C)cc21 [Compound 10d] . Value?
22.5

For every item in the list below, what is its measured inhibition at 100 µM?
1. C#CCN1CCCc2ccc(OC(=O)N(C)C)cc21 [Compound 10g]
2. CN(C)C(=O)Oc1ccc2c(c1)N(Cc1ccccc1)CCC2
3. C#CCN1CCCc2ccc(OC(=O)NCCCCCCC)cc21 [Compound 10b]
4. COc1ccccc1NC(=O)Oc1ccc2c(c1)N(Cc1ccccc1)CCC2
5. O=C(Nc1ccc(F)cc1)Oc1ccc2c(c1)N(Cc1ccccc1)CCC2

1: 96.5; 2: 98; 3: 77.2; 4: 24.1; 5: 15.5

====

Target: Acetylcholinesterase (AChE) (Mus musculus)
Construct: A 10% (w/v) homogenate of brain was prepared; from tissue; host or cells: whole brain of adult Swiss albino mice; supernatant (100,000 g) of the 1% Triton X-100 treated homogenate
Sequence (P21836 32-614): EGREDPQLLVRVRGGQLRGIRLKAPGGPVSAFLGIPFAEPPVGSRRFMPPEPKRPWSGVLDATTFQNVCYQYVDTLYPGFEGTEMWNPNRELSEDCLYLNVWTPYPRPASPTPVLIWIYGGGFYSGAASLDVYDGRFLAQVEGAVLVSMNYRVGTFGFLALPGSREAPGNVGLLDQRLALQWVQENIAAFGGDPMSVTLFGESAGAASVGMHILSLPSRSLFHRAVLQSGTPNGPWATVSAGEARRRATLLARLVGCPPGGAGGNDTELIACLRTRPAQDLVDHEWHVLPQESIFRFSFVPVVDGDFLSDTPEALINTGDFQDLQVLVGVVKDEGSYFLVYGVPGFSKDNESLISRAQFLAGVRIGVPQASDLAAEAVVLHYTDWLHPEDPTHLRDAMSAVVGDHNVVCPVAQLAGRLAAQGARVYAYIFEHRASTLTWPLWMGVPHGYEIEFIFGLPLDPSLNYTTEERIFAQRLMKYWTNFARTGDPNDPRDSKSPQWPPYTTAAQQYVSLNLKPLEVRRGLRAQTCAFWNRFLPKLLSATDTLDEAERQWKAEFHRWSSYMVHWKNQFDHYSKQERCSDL
Assay: Acetylcholinesterase (AChE) assay in brain (in vitro), Ellman method
Type: biochemical, Swiss albino mice
Details: read-out: % Inhibition of AChE enzyme
Provide the recorded inhibition at 100 µM for the entries that follow.
Numbers only, in %.

Example results:
Endpoint output: inhibition at 100 µM of CCCCCCCNC(=O)Oc1ccc2c(c1)N(Cc1ccccc1)CCC2 [Compound 8h] . Value?
10.1

Endpoint output: inhibition at 100 µM of Cc1ccc(NC(=O)Oc2ccc3c(c2)NCCC3)cc1 [Compound 9a] . Value?
1.45

Endpoint output: inhibition at 100 µM of O=C(Nc1ccc(Cl)cc1)Oc1ccc2c(c1)NCCC2 [Compound 9d] . Value?
38.9

Now take the following compound into account.
Endpoint output: inhibition at 100 µM of C#CCN1CCCc2ccc(OC(=O)Nc3ccccc3OC)cc21 [Compound 10e] . Value?
96.3

====

target: Acetylcholinesterase (AChE) (Mus musculus); construct: A 10% (w/v) homogenate of brain was prepared; supernatant (100,000 g) of the 1% Triton X-100 treated homogenate; test: Acetylcholinesterase (AChE) assay in brain (in vitro), Ellman method
pIC50: −log10 of the molar value.
Given measured pIC50, output label 1 if it is greater than or equal to 4 and label 0 if not.

Field: example entries. Status: answers known.
Is pIC50 for COc1ccccc1NC(=O)Oc1ccc2c(c1)N(Cc1ccccc1)CCC2 [Compound 8i] at or above 4?
label 0

Is pIC50 for C#CCN1CCCc2ccc(OC(=O)N(C)C)cc21 [Compound 10g] at or above 4?
label 1

Is pIC50 for Cc1ccccc1NC(=O)Oc1ccc2c(c1)N(Cc1ccccc1)CCC2 [Compound 8a] at or above 4?
label 1

Is pIC50 for C#CCN1CCCc2ccc(OC(=O)Nc3ccccc3Br)cc21 [Compound 10c] at or above 4?
label 1

Is pIC50 for Cc1ccc(NC(=O)Oc2ccc3c(c2)N(Cc2ccccc2)CCC3)cc1 [Compound 8b] at or above 4?
label 0

Is pIC50 for O=C(Nc1ccc(F)cc1)Oc1ccc2c(c1)N(Cc1ccccc1)CCC2 [Compound 8d] at or above 4?
label 0

Is pIC50 for CN1CCCc2ccc(OC(=O)Nc3ccccc3F)cc21 [Compound 8l] at or above 4?
label 1

Is pIC50 for O=C(Nc1ccc(Cl)cc1)Oc1ccc2c(c1)N(Cc1ccccc1)CCC2 [Compound 8f] at or above 4?
label 0

Is pIC50 for CN(C)C(=O)Oc1ccc2c(c1)N(Cc1ccccc1)CCC2 [Compound 8k] at or above 4?
label 1

Field: next molecule
Is pIC50 for Cc1ccc(NC(=O)Oc2ccc3c(c2)NCCC3)cc1 [Compound 9a] at or above 4?
label 0

====

target: Acetylcholinesterase (AChE) (Mus musculus, UniProt P21836); construct: A 10% (w/v) homogenate of brain was prepared; from tissue; host or cells: whole brain of adult Swiss albino mice; supernatant (100,000 g) of the 1% Triton X-100 treated homogenate; assay: Acetylcholinesterase (AChE) assay in brain (in vitro), Ellman method; type: biochemical, Swiss albino mice; conditions: read-out: % Inhibition of AChE enzyme
assay-metric: inhibition at 10 µM (%)
Give bare numbers, in %.

Example results:
Endpoint output: inhibition at 10 µM of CCCCCCCNC(=O)Oc1ccc2c(c1)N(Cc1ccccc1)CCC2 . Value?
5.2

Endpoint output: inhibition at 10 µM of C#CCN1CCCc2ccc(OC(=O)Nc3ccccc3OC)cc21 [Compound 10e] . Value?
95.4

Endpoint output: inhibition at 10 µM of O=C(Nc1ccccc1F)Oc1ccc2c(c1)NCCC2 . Value?
10.5

Endpoint output: inhibition at 10 µM of COc1ccccc1NC(=O)Oc1ccc2c(c1)N(Cc1ccccc1)CCC2 . Value?
2.5

Now take the following molecule into account.
Endpoint output: inhibition at 10 µM of O=C(Nc1ccc(Cl)cc1)Oc1ccc2c(c1)N(Cc1ccccc1)CCC2 . Value?
2.1

====

Molecular target: Acetylcholinesterase (AChE) (Mus musculus, UniProt P21836)
Construct: A 10% (w/v) homogenate of brain was prepared; from tissue; host or cells: whole brain of adult Swiss albino mice; supernatant (100,000 g) of the 1% Triton X-100 treated homogenate
Sequence (P21836 32-614): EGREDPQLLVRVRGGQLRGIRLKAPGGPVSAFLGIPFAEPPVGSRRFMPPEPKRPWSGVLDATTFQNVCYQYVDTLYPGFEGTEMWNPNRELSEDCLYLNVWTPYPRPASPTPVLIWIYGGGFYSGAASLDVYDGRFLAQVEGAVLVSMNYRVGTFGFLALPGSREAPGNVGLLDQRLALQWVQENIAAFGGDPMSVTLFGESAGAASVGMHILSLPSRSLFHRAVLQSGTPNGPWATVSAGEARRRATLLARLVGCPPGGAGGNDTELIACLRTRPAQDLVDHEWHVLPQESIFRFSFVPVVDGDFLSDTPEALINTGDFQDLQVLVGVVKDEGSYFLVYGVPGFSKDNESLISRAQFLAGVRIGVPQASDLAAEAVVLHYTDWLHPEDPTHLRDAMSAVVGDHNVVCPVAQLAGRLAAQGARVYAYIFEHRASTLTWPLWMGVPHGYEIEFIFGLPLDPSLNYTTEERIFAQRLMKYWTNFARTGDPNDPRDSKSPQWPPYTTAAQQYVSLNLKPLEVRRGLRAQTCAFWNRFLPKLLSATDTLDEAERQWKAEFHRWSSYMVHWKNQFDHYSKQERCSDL
Experiment: Acetylcholinesterase (AChE) assay in brain (in vitro), Ellman method
Assay type: biochemical, Swiss albino mice
Conditions: read-out: % Inhibition of AChE enzyme
Provide the recorded inhibition at 100 µM for the entries that follow.
One number for each entry, in %.

Example results:
Endpoint output: inhibition at 100 µM of O=C(Nc1ccc(Cl)cc1)Oc1ccc2c(c1)N(Cc1ccccc1)CCC2 . Value?
12.5

Endpoint output: inhibition at 100 µM of O=C(Nc1ccc(F)cc1)Oc1ccc2c(c1)NCCC2 . Value?
21.6

***
Endpoint output: inhibition at 100 µM of Cc1ccccc1NC(=O)Oc1ccc2c(c1)N(Cc1ccccc1)CCC2 . Value?
90.4
